Data origin: paper PMC11854273

- System: FM55P malignant melanoma cell line
- run_description: MTT cell viability assay, FM55P
- Type: cell-based
- measurement_conditions: Homo sapiens; FM55P, MTT assay, 72 h, mean ± SEM; read-out: IC50
quantity: IC50 (µM)
The reply should contain only the number, in µM.

Cc1ccc(C(C)C)c(O)c1 :: 460
CC(C)=CCC/C(C)=C/C=O :: 90
CC(C)=CCCC(C)CCO (stereo not shown) :: 2450

Turning now to a further record.
Incoming: Name the recorded IC50 of the molecule listed here: `CC(C)=CCC/C(C)=C/CO`
Outgoing: 330

* * *

- Test system: malignant melanoma cell lines A375, SK-MEL28, FM55P, FM55M2
- run_description: LDH cytotoxicity assay, melanoma lines
- measurement_conditions: 72 h
quantity: concentration with statistically significant cytotoxicity towards melanoma cells

Incoming: Give concentration with statistically significant cytotoxicity towards melanoma cells for this entry on malignant melanoma cell lines A375, SK-MEL28, FM55P, FM55M2: `Cc1ccc(C(C)C)cc1O`
Outgoing: 50 to 650 µM
